List of EC50 values.
- target: T1, PCSK9-BP15-His6 (human, UniProt Q8NBP7 31-692, biotin on the BP15 biotin receiving peptide)
- T1 construct: It holds a signal peptide (underlined in print); also called WT PCSK9; bio-WT-PCSK9
- experiment notes: ELISA, bio-WT-PCSK9 captured on streptavidin plate
Could you give me the number in ng/mL? Just the number is fine.

1) h001-16 (antibody, human IgG1, V domains shown, Variable regions only; also called h001_VH.1C + h001_VL.1C) VH: QVQLVQSGAEVKKPGASVKVSCKASGYTFNDYWMHWVRQAPGQGLEWMGYINPSSGFTKYHQNFKDRVTMTRDTSISTAYMELSRLTSDDTAVYYCARQYDYDEDWYFDVWGQGTTVTVSS VL: DIVMSQSPSSLSASVGDRVTITCKSSQSLLNSRTRKNFLAWYQQKPGKSPKLLIYWASTRESGVPDRFSGSGSGTDFTLTISSLQPEDFATYYCKQSFNLFTFGQGTKLEIK ... 8.2

Consider the additional binder presented here.
## Task // EC50 lookup, key: h001-17 (antibody, human IgG1, V domains shown, Variable regions only; also called h001_VH.1D + h001_VL.1) VH: QVQLVQSGAEVKKPGASVKVSCKASGYTFNDYWMHWVRQAPGQGLEWMGYINPSSGFTKYHQNFKDRVTMTADKSISTAYMELSRLTSDDTAVYYCARQYDYDEDWYFDVWGQGTTVTVSS VL: DIQMTQSPSSLSASVGDRVTITCKSSQSLLNSRTRKNFLAWYQQKPGKAPKLLIYWASTRESGVPSRFSGSGSGTDFTLTISSLQPEDFATYYCKQSFNLFTFGQGTKLEIK
## Result 11.4
